System Tested: Neu5Ac(a2-6)Gal(b1-4)GlcNAc(b1-3)Gal(b1-4)GlcNAc(b1-3)Gal(b1-4)GlcNAc(b1-2)Man(a1-3)[Neu5Ac(a2-6)Gal(b1-4)GlcNAc(b1-3)Gal(b1-4)GlcNAc(b1-3)Gal(b1-4)GlcNAc(b1-2)Man(a1-6)]GalNAc
Test Description: glycan array binding signal (z-score within array); higher = stronger binding
Experimental Context: glycan notation: IUPAC condensed, linker removed
The full list was thinned out, with the strongest signals kept by preference.
Assign label 1 whenever glycan array binding signal (z-score) does not fall below 1; assign label 0 whenever it does.

Answered cases to consult:
{"Binder": "rCNL (Clitocybe nebularis), B2ZRS9 (protein) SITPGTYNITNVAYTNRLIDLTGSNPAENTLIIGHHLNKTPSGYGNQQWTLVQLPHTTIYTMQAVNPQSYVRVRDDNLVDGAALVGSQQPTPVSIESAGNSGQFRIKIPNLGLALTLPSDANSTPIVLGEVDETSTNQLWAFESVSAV", "Label Class": "label 0"}
{"Binder": "Erv41-EDTA (Saccharomyces cerevisiae), Q04651 (protein) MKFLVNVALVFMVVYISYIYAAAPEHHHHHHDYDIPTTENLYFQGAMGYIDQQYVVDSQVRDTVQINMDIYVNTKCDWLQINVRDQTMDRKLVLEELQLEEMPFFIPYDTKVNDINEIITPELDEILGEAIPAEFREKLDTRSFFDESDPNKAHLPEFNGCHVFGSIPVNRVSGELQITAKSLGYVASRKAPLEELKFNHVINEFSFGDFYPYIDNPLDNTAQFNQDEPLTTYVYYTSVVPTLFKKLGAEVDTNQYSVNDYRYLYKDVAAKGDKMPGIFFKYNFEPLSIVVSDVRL", "Label Class": "label 1"}
{"Binder": "CFEM-SCL (Saccharomyces cerevisiae), O13547 (protein) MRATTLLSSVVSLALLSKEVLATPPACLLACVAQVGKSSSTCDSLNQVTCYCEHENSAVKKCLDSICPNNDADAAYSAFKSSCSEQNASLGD", "Label Class": "label 1"}
{"Binder": "FGFR2-Fc (protein) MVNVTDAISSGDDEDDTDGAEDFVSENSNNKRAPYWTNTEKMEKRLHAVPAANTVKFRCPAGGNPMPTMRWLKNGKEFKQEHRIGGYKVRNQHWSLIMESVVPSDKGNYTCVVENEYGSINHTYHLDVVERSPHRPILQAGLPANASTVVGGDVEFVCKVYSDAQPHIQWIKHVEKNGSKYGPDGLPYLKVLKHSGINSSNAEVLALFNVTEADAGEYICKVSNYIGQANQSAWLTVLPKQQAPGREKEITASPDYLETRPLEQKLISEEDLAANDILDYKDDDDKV", "Label Class": "label 1"}
{"Binder": "TIM1 (protein) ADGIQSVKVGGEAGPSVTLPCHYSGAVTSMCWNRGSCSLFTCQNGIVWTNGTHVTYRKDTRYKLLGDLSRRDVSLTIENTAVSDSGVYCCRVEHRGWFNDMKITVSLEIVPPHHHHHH", "Label Class": "label 1"}

Okay, now this binder:
Exam item: decide whether the reported glycan array binding signal (z-score) for MpAFP NterminalRI GFP (Marinomonas primoryensis) (protein) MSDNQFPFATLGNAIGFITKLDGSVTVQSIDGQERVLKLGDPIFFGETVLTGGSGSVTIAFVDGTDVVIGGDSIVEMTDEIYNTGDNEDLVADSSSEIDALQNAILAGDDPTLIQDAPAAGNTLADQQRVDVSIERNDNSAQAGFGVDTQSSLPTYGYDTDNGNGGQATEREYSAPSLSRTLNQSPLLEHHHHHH is at least 1. label 1
